Target: ~100 representative kinases (Homo sapiens)
Construct: Recombinant protein kinase domains with a concentration of 2 μM
Sequence (P17948 27-1338): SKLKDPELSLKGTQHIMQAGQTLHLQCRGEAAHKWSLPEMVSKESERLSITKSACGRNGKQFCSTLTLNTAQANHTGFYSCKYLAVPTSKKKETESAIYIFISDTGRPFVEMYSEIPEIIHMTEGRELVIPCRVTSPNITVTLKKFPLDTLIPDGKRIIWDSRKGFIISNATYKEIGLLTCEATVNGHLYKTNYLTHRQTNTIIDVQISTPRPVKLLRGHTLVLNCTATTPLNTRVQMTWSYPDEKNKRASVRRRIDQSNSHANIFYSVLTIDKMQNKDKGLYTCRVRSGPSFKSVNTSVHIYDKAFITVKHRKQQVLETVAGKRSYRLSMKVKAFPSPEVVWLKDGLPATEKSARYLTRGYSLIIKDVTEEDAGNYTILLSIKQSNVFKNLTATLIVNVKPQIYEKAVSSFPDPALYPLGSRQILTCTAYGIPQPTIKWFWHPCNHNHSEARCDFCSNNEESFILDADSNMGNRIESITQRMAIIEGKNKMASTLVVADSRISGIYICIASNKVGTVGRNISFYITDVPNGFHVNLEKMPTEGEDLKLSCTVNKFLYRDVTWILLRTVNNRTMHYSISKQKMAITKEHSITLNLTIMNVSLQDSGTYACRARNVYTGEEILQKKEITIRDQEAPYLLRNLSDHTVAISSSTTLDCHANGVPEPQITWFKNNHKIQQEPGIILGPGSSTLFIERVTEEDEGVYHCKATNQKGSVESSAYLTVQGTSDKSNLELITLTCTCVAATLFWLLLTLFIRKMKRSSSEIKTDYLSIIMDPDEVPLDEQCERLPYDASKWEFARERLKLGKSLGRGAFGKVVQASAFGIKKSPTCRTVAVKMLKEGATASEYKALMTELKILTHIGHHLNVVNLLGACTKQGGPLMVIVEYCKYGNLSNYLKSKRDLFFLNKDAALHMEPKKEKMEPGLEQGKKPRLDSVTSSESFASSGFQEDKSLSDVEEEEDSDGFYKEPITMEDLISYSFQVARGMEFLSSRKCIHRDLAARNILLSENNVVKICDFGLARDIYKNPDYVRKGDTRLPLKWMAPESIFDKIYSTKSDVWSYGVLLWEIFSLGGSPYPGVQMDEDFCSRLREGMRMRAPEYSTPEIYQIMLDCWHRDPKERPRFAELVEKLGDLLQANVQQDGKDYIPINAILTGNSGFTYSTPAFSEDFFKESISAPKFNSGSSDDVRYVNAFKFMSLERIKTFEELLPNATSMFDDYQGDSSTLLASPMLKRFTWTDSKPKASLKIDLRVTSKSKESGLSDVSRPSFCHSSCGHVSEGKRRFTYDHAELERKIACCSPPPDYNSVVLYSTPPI
Experiment: DSF 100 kinase selectivity screen;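 also: compound tested at 20 µM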
Format: binding
Conditions: protein FLT1; average of three replicates
Mark NOT MET for dTm values under 3 K, and MET for everything at or above.

| record-smiles | label |
| --- | --- |
| CCSc1nc(NC)c2c(-c3cccc(NC(=O)Nc4cc(C(C)(C)C)nn4-c4ccc(C)cc4)c3)c[nH]c2n1 | NOT MET |

// switching to the query compound
Can "CC(C)(C)c1cccc(NC(=O)C2(C(=O)Nc3cccc(-c4c[nH]c5ncnc(N6CCOCC6)c45)c3)CC2)c1" be said to have dTm at or above 3 K?
NOT MET
